Biological target: Heat shock factor protein 1 (Homo sapiens)
Assay: ATG_HSE_CIS: Attagene CIS-FACTORIAL HepG2 Assay for human Heat Shock Transcription Factor 1 (HSE) (AID 2282953)
Details: HepG2 HSE cis-reporter, Attagene RNA transcription; actives raise or lower the signal
Calls of active or inactive are those of the source. How the source made its calls: active means hit-call score of the fitted dose curve at least 0.9, where 1 is the maximum; inactive means score below 0.9.
Use one of these outcomes when replying: active, inactive

# count of solved cases: 4
CC(=O)c1ccc[nH]1	inactive
CC(C)COC(=O)C=Cc1ccccc1	inactive
O=CC1CC1	inactive
C/C=C\C/C=C/CCCCCCCCOC(C)=O	active

(Q) I'd appreciate the recorded outcome for O=C1CCCCCN1SSN1CCCCCC1=O from this test.
(A) active

(Q) I'd appreciate the recorded outcome for CCCCCCCC/C=C\CCCCCCCC(=O)OCCO from this test.
(A) inactive
